assayTarget: T1, human IL-36R (human, UniProt Q9HB29 20-575)
T1 sequence (looked up): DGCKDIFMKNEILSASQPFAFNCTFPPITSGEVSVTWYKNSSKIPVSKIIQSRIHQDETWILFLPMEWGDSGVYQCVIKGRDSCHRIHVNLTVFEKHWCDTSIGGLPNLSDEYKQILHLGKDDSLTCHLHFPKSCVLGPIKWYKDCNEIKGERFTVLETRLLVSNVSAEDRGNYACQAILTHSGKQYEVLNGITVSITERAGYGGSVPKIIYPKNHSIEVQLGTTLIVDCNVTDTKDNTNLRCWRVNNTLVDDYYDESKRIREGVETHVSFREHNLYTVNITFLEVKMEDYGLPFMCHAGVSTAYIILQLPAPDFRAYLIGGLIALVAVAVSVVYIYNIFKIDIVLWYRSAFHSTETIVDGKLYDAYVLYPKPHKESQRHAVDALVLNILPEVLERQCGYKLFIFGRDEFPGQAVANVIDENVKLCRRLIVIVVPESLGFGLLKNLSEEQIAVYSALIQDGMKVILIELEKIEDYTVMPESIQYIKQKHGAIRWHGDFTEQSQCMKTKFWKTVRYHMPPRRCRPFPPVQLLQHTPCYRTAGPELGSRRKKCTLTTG
testName: cell-based or functional assay
metric: IC50, IL-8 release under IL-36 α stimulation (NCI/ADR-RES cells)

These solved cases illustrate the format of a correct answer.
humanized anti-IL-36R antibody 900527 (antibody, V domains shown, IgG1 (human IgG1 L234A/L235A, human kappa); also called HB0034) VH: QVQLVQSGAEVKKPGASVKVSCKASGYTFTSSWMHWAKQAPGQGLEWIGEIHPNSAKTNYNQKFQGRVTMTRDTSISTAYMELSRLRSDDTAVYYCARVDYGKPWFAYWGQGTLVTVSS VL: QIVLTQSPGTLSLSPGERATLSCRASSSVSSSYLHWYQQKPGQAPRLWIYSTSSRATGIPDRFSGSGSGTDFTLTISRLEPEDFATYYCQQFQSSPLTFGQGTKLEIK ... 0.0315 mg/L
anti-IL-36R chimeric antibody 900497 (antibody, V domains shown, Human-mouse chimera: human IgG1 heavy-chain constant region with L234A and L235A (Eu numbering), human kappa constant region) VH: QVQLQQTGSVLVRPGTSVKLSCKASGYTFTSSWMHWAKQRPGQGLEWIGEIHPNSAKTNYNEKFKGKATLTVDTFSSTAYVDLSSLASEDSAVYYCARVDYGKPWFAYWGQGTLVTVSA VL: QIVLTQSPTIMSASPGERVTMTCSASSSVSSSYLHWYQQKPGSSPKLWIYSTSNLASGVPARFSGSGSGTSYSLTINSMEAEDAATYYCQQFQSSPLTFGAGTKLGLK ... 0.0439 mg/L
humanized anti-IL-36R antibody 900534 (antibody, V domains shown, IgG1 (human IgG1 L234A/L235A, human kappa)) VH: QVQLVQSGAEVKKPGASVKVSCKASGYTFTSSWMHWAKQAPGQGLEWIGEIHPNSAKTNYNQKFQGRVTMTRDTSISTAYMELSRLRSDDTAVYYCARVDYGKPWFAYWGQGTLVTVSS VL: QIVLTQSPGTLSLSPGERATLSCRASSSVSSSYLHWYQQKPGQAPRLLIYSTSSRATGIPDRFSGSGSGTDFTLTISRLEPEDFATYYCQQFQSSPLTFGQGTKLEIK ... 0.0304 mg/L

Now for the binder whose IC50, IL-8 release under IL-36 α stimulation (NCI/ADR-RES cells) we want.
Looking for the measured IC50, IL-8 release under IL-36 α stimulation (NCI/ADR-RES cells) of humanized anti-IL-36R antibody 900513 (antibody, V domains shown, IgG1; built from the chimeric expression plasmids (human IgG1 L234A/L235A, human kappa)) VH: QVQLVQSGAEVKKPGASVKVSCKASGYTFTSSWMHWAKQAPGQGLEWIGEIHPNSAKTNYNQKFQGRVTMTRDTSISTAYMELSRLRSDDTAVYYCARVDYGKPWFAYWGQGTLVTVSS VL: EIVLTQSPGTLSLSPGERATLSCSASSSVSSSYLHWYQQKPGQAPRLWIYSTSNRATGIPDRFSGSGSGTDFTLTISRLEPEDFATYYCQQFQSSPLTFGQGTKLEIK , can you help? 0.0398 mg/L
